Each record here notes measured % Inhibition Fbw7 @ 10 µM.
Target: Fbw7 (UniProt Q969H0 263-707, limits assumed)
Sequence (Q969H0 263-707 limits assumed): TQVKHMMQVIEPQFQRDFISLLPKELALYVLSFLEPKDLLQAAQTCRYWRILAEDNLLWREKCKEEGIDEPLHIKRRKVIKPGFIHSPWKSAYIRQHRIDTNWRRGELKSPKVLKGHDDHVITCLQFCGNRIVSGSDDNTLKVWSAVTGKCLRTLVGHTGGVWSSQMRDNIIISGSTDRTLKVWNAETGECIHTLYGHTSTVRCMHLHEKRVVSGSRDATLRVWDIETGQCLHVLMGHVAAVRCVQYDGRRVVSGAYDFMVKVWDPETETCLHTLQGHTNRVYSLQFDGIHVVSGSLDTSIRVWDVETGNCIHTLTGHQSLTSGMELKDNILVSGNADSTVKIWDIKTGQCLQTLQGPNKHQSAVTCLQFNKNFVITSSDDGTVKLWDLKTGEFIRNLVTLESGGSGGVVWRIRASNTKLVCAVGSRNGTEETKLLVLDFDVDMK
Experiment: cell-based or functional assay
Starred links: 1 amine or outer side, 2 acyl side, 3 side chain; linkers in the order of their positions; H or OH if unused. Non-standard residues stand in square brackets, D forms with d. *: point of attachment. Phe(4-NO2) = N[C@@H](Cc1ccc([N+](=O)[O-])cc1)C(=O)O; Benzenesulfonyl(4-OMe) = COc1ccc(S(=O)(=O)*)cc1; 4‑(BuO)‑PhSO2 = CCCCOc1ccc(S(=O)(=O)*)cc1; Phe(3-F) = N[C@@H](Cc1cccc(F)c1)C(=O)O; Phe(4-F) = N[C@@H](Cc1ccc(F)cc1)C(=O)O; Suc = O=C(CCC(=O)[*:2])[*:1]; Tos = Cc1ccc(S(=O)(=O)*)cc1; Ethoxycarbonyl = CCOC(=O)*
Give the number; % is assumed, so skip it.

Ethoxycarbonyl-[dD]EG[Phe(3-F)]WE-NH2 (SMILES CCOC(=O)N[C@H](CC(=O)O)C(=O)N[C@@H](CCC(=O)O)C(=O)NCC(=O)N[C@@H](Cc1cccc(F)c1)C(=O)N[C@@H](Cc1c[nH]c2ccccc12)C(=O)N[C@@H](CCC(=O)O)C(N)=O, also called UBP023) [EtO(CO)-dEGF(3F)WE-NH2]    0
Tos-[dD]EG[Phe(3-F)]WE-NH2 (SMILES Cc1ccc(S(=O)(=O)N[C@H](CC(=O)O)C(=O)N[C@@H](CCC(=O)O)C(=O)NCC(=O)N[C@@H](Cc2cccc(F)c2)C(=O)N[C@@H](Cc2c[nH]c3ccccc23)C(=O)N[C@@H](CCC(=O)O)C(N)=O)cc1, also called UBP021) [Ts-dEGF(3F)WE-NH2]    9
Tos-[dD]DG[Phe(3-F)]WD-NH2 (SMILES Cc1ccc(S(=O)(=O)N[C@H](CC(=O)O)C(=O)N[C@@H](CC(=O)O)C(=O)NCC(=O)N[C@@H](Cc2cccc(F)c2)C(=O)N[C@@H](Cc2c[nH]c3ccccc23)C(=O)N[C@@H](CC(=O)O)C(N)=O)cc1, also called UBP028) [Ts-dDGF(3F)WD-NH2]    4

Quick one: % Inhibition Fbw7 @ 10 µM for {Benzenesulfonyl(4-OMe)}-DEG[Phe(3-F)]WE-NH2 (SMILES COc1ccc(S(=O)(=O)N[C@@H](CC(=O)O)C(=O)N[C@@H](CCC(=O)O)C(=O)NCC(=O)N[C@@H](Cc2cccc(F)c2)C(=O)N[C@@H](Cc2c[nH]c3ccccc23)C(=O)N[C@@H](CCC(=O)O)C(N)=O)cc1, also called UBP026) [4-(MeO)-PhSO2-DEGF(3F)WE-NH2] ?
0

Quick one: % Inhibition Fbw7 @ 10 µM for {4‑(BuO)‑PhSO2}-[dD]EG[Phe(3-F)]WE-NH2 (also called UBP030) [4-(BuO)-PhSO2-dEGF(3F)WE-NH2] ?
7

Quick one: % Inhibition Fbw7 @ 10 µM for Suc-EG[Phe(4-F)][Phe(4-NO2)]E-NH2 (SMILES NC(=O)[C@H](CCC(=O)O)NC(=O)[C@H](Cc1ccc([N+](=O)[O-])cc1)NC(=O)[C@H](Cc1ccc(F)cc1)NC(=O)CNC(=O)[C@H](CCC(=O)O)NC(=O)CCC(=O)O) [Suc-EGF(4F)F(4NO2)E-NH2] ?
0

Quick one: % Inhibition Fbw7 @ 10 µM for Suc-EGFFE-NH2 (SMILES NC(=O)[C@H](CCC(=O)O)NC(=O)[C@H](Cc1ccccc1)NC(=O)[C@H](Cc1ccccc1)NC(=O)CNC(=O)[C@H](CCC(=O)O)NC(=O)CCC(=O)O, also called UBP002) [Suc-EGFFE-NH2] ?
0
